Test system: MS751 cells
protocol-summary: MTT cell proliferation assay, MS751
Format: cell-based, human
run-parameters: Homo sapiens, MS751, MS751 cells; eight concentrations 1 nM to 30 μM; incubation approximately 64-72 hours; read-out: MTT Assay IC50, MS751
result-type: IC50

> print(dat)
                                   molecule          val
1  CC(=O)c1ccc(-c2cc(Cl)c3c(c2)CC(CNC(=O)/C=C/c2ccc(N)nc2C)O3)s1 (stereo not drawn)   5 to 30 µM
2  CC(=O)c1ccc(-c2cc(Cl)c3c(c2)CC(CNC(=O)/C=C/c2cc(C)[nH]c2C)O3)s1 (stereo not drawn)      > 30 µM
3  COc1ccc(F)cc1-c1cc(Cl)c2c(c1)CC(CNC(=O)/C=C/c1cccnc1)O2 (stereo not drawn)  0.1 to 5 µM

According to the records, this molecule O=C(/C=C/c1cccnc1)NCC1Cc2cc(-c3ccco3)cc(Cl)c2O1 (stereo not drawn) displays IC50 of 0.1 to 5 µM

Measured IC50 of CC(=O)c1ccc(-c2cc(Cl)c3c(c2)CC(CNC(=O)/C=C/c2cnccn2)O3)s1 (stereo not drawn) : > 30 µM

Just so you know, measured IC50 for CC(=O)c1ccc(-c2cc(Cl)c3c(c2)CC(CNC(=O)/C=C/c2cc(C)on2)O3)s1 (stereo not drawn) came out at 0.1 to 5 µM

---

System: 3T3 cells
protocol-summary: MTT cell proliferation assay, 3T3
Format: cell-based, mouse
run-parameters: Mus musculus, NIH3T3, 3T3 cells, approximately 64-72 hours incubation; read-out: MTT Assay IC50, 3T3
pIC50: −log10 of the molar value.
result-type: pIC50

Form: molecule = Nc1ccc(CCC(=O)NCC2Cc3cc(-c4ccc(C(=O)N5CCNCC5)cc4)cc(Cl)c3O2)cn1 (centres unmarked) [Compound 920] ; pIC50 = < 4.52

Measured pIC50, CC(=O)c1ccc(-c2cc(Cl)c3c(c2)CC(CNC(=O)/C=C/c2nccs2)O3)s1 (centres unmarked) [Compound 207] : < 4.52

pIC50 measured on Cc1onc(-c2ccccc2)c1-c1cc(Cl)c2c(c1)CC(CNC(=O)/C=C/c1ccc(N)nc1)O2 (centres unmarked) [Compound 325] = 5.30 to 7.00

Given item CC(=O)c1ccc(-c2cc(Cl)c3c(c2)CC(CNC(=O)/C=C/c2csc4ccccc24)O3)s1 (centres unmarked) [Compound 200] , the value recorded as its pIC50 is < 4.52

Entry CC(=O)c1ccc(-c2cc(Cl)c3c(c2)CC(CNC(=O)CCc2cnc(N)c(Br)c2)O3)s1 (centres unmarked) [Compound 371] , pIC50 reported as < 4.52

Quick note, pIC50 for CC1(C)COCCN1C(=O)c1ccc(-c2cc(Cl)c3c(c2)CC(/C=C/C(=O)NCc2ccc(N)nc2)O3)nc1 (centres unmarked) [Compound 368] landed at 5.30 to 7.00

For CC(=O)c1ccc(-c2cc(Cl)c3c(c2)CC(CNC(=O)/C=C/n2cncn2)O3)s1 (centres unmarked) [Compound 229] the molecule record lists pIC50 as < 4.52

Reported pIC50 of CC(=O)c1ccc(-c2cc(Cl)c3c(c2)CC(CNC(=O)/C=C/c2nc4ccccc4o2)O3)s1 (centres unmarked) [Compound 290] : < 4.52

The reported pIC50 of the molecule CC(=O)c1ccc(-c2cc(Cl)c3c(c2)CC(CNC(=O)/C=C/c2cc(C)n(-c4ccc(Cl)cc4)c2C)O3)s1 (centres unmarked) [Compound 209] was < 4.52

Reported pIC50 for O=C(/C=C/C1Cc2cc(-c3ccc(C(=O)N4CCOCC4)cc3)cc(Cl)c2O1)NCc1cccnc1 (centres unmarked) [Compound 334] was 4.52 to 5.30

Quick note, pIC50 for CN1C(=O)c2ccc(-c3cc(Cl)c4c(c3)CC(CNC(=O)/C=C/c3ccc(N)nc3)O4)cc2C1=O (centres unmarked) [Compound 343] landed at > 7.00

pIC50 recorded for this molecule, Nc1ccc(/C=C/C(=O)NCC2Cc3cc(-c4ccc(CC(=O)N5CCOCC5)cc4)cc(Cl)c3O2)cn1 (centres unmarked) [Compound 921] , is 5.30 to 7.00

Please fill in: pIC50 reported for CC(=O)c1ccc(-c2cc(Cl)c3c(c2)CC(CNC(=O)/C=C/c2cc4cnn(C(C)C)c4[nH]c2=O)O3)s1 (centres unmarked) [Compound 289] = < 4.52

Record summary for CC(=O)c1ccc(-c2cc(Cl)c3c(c2)CC(CNC(=O)/C=C/Cc2cccnc2)O3)s1 (centres unmarked) [Compound 222] : reported pIC50 = 4.52 to 5.30

---

Test system: 3T3 cells
protocol-summary: MTT cell proliferation assay, 3T3
Type: cell-based, mouse
run-parameters: Mus musculus, NIH3T3, 3T3 cells, approximately 64-72 hours incubation; read-out: MTT Assay IC50, 3T3
Quick reference: IC50 of the listed items.

Reference set, count: 5
> print(dat)
                                   compound  target.or.test.system  result.type          val
1  CC(=O)c1ccc(-c2cc(Cl)c3c(c2)CC(CNC(=O)/C=C/c2cccnn2)O3)s1 (single isomer, unassigned)              3T3 cells         IC50      > 30 µM
2  C=C(Cc1cccnc1)C(=O)NCC1Cc2cc(-c3ccc(C(C)=O)s3)cc(Cl)c2O1 (stereo not drawn)              3T3 cells         IC50      > 30 µM
3  CCn1ccnc1/C=C/C(=O)NCC1Cc2cc(-c3ccc(C(C)=O)s3)cc(Cl)c2O1 (stereo not drawn)              3T3 cells         IC50      > 30 µM
4  CN(C)C(=O)c1ccc(-c2cc(Cl)c3c(c2)CC(CNC(=O)/C=C/c2ccc(N)nc2)O3)cc1 (stereo not drawn)              3T3 cells         IC50   5 to 30 µM
5  Nc1ccc(CNC(=O)/C=C/C2Cc3cc(-c4ccc(C(=O)N5CC[C@@H](F)C5)cc4)cc(Cl)c3O2)cn1 (stereo partly drawn)              3T3 cells         IC50  0.1 to 5 µM

Noted for CC(=O)c1ccc(-c2cc(Cl)c3c(c2)CC(CNC(=O)/C=C/c2c(C)nn(-c4ccc(F)cc4)c2C)O3)s1 (stereo not drawn) : its IC50 reads > 30 µM

For reference, reported IC50 for Nc1ccc(/C=C/C(=O)NCC2Cc3c(-c4cccc(C(=O)N5CCOCC5)c4)ccc(Cl)c3O2)cn1 (stereo not drawn) stands at 0.1 to 5 µM

---

Tested on: MS751 cells
protocol-summary: MTT cell proliferation assay, MS751
Type: cell-based, human
run-parameters: MS751 cells; eight concentrations 1 nM to 30 μM; incubation approximately 64-72 hours; read-out: MTT Assay IC50, MS751
Method: The MTT cell proliferation assay was used to study the cytotoxic properties of the compounds. The assay was performed according to the method described by Roche Molecular Biochemicals, with minor modifications. […] After solubilization, the formazan dye was quantitated using a scanning multi-well spectrophotometer (ELISA reader). […] All optical densities were measured at 490 nm using a Vmax Kinetic Microplate Reader (Molecular Devices). […]
pIC50: −log10 of the molar value.
result-type: pIC50

Lookup result for CC(=O)c1ccc(-c2cc(Cl)c3c(c2)CC(CNC(=O)/C=C/c2cccnc2)O3)s1 (stereo not shown) ; measured pIC50: 5.30 to 7.00

---

Tested on: 3T3 cells
protocol-summary: MTT cell proliferation assay, 3T3
Type: cell-based, mouse
run-parameters: Mus musculus, NIH3T3, 3T3 cells, approximately 64-72 hours incubation; read-out: MTT Assay IC50, 3T3
pIC50: −log10 of the molar value.
result-type: pIC50

// pIC50 value for Nc1ccc(/C=C/C(=O)NCC2Cc3cc(-c4cnc(C(=O)N5CCOCC5)c(Cl)c4)cc(Cl)c3O2)cn1 (centres unmarked) [Compound 326] : 4.52 to 5.30

# pIC50 of CC(=O)c1ccc(-c2ccc3c(c2)CC(CNC(=O)/C=C/c2cccnc2)O3)s1 (centres unmarked) [Compound 292] = 5.30 to 7.00

---

# IC50 listing for each entry below
Test system: 3T3 cells
protocol-summary: MTT cell proliferation assay, 3T3
Type: cell-based, mouse
run-parameters: Mus musculus, NIH3T3, 3T3 cells, approximately 64-72 hours incubation; read-out: MTT Assay IC50, 3T3

> print(dat)
                                   compound          val
1  Nc1ccc(/C=C/C(=O)NCC2Cc3cc(-c4ccc(C(=O)N5CC(F)(F)C5)c(F)c4)cc(Cl)c3O2)cn1 (stereo not drawn)  0.1 to 5 µM
2  CC(=O)c1ccc(-c2cc(Cl)c3c(c2)CC(CNC(=O)/C=C/c2cncc(F)c2)O3)s1 (stereo not drawn)      > 30 µM
3  Nc1ccc(/C=C/C(=O)NCC2Cc3cc(-c4ccc(C(=O)N5CC(F)(F)C5)cn4)cc(Cl)c3O2)cn1 (stereo not drawn)  0.1 to 5 µM
4  Nc1ccc(/C=C/C(=O)NCC2Cc3c(-c4ccc(C(=O)N5CCOCC5)cc4)ccc(Cl)c3O2)cn1 (stereo not drawn)  0.1 to 5 µM
5  Nc1ccc(CNC(=O)/C=C/C2Cc3c(-c4ccc(C(=O)N5CC(F)C5)cc4)ccc(Cl)c3O2)cn1 (stereo not drawn)   5 to 30 µM

Please examine the following record next.
Measured IC50, Nc1ccc(/C=C/C(=O)NCC2Cc3c(-c4ccccc4C(=O)N4CCOCC4)ccc(Cl)c3O2)cn1 (stereo not drawn) : < 0.1 µM
